Target: T1, RTEL1∆762-1097 (human, UniProt Q9NZ71-6 762-1097)
T1 sequence: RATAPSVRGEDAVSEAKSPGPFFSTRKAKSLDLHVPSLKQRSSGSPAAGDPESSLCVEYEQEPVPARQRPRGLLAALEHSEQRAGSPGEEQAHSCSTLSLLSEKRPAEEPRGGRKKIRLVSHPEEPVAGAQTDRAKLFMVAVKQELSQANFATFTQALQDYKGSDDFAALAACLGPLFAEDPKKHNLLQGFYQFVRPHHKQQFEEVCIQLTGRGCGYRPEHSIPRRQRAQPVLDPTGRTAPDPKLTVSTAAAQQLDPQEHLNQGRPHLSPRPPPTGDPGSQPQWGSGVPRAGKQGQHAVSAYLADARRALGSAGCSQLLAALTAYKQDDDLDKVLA
Experiment: competition (fluorescence anisotropy); vs FAM-TERRA-MUT, 200 nM; 20 mM Tris pH 7.5, 50 mM KCl, 0.5 mM TCEP, 0.5 mM MgCl2, 10% glycerol, 0.1% IGEPAL, room temperature 30 min; oligos refolded in 10 mM Tris pH 7.5, 100 mM KCl; EMSA legends give 150 or 300 mM KCl
Details: protein: recombinant; tags: 6xHis; G4
The following binders are shown together with reported Ki values.
reported.property: Ki (µM)

>>> obs_value("GGTTAGGGTTAGGGTTAGGGTTAGGGTTAG (structured_DNA) [hTelo]")
0.276
>>> obs_value("UUAGGGUUAGGGUUAGGGUUAGGG (structured_RNA) [TERRA competitor]")
0.245
